test system: PC-3 prostate; experiment: NCI tumour cell line growth inhibition, 48 h
Overview of reported TGI across a group of compounds:

# compound, assay.target, TGI
rows = [
    ("COC(=O)c1ccc(NCc2cc(O)ccc2O)cc1O", "PC-3 prostate", "> 32.3 µM"),
    ("C/C(=N\\Nc1cccc(Cl)n1)c1ccccn1", "PC-3 prostate", "> 100 µM"),
    ("CC(=O)N[C@@H](Cc1ccc(OP(=O)(O)O)cc1)C(=O)N[C@H]1CCC(=O)N2CCC[C@@H](C(=O)NCc3ccc(O)cc3)N2C1=O", "PC-3 prostate", "> 25 µM"),
    ("CCOC(=O)C(Cc1ccc(OC)cc1)C(=O)OCC", "PC-3 prostate", "32.4 µM"),
    ("O=[N+]([O-])c1ccc(-c2ccccc2)c([As](=O)(O)O)c1", "PC-3 prostate", "> 100 µM"),
    ("O=C1/C(=C\\c2c(-c3ccccc3)nn(-c3ccccc3)c2O)C(c2ccccc2)=NN1c1ccccc1", "PC-3 prostate", "> 100 µM"),
    ("CCCCCCC1N=C(N)N=C(N)N1c1ccc(Cl)cc1 (stereo unspecified)", "PC-3 prostate", "52.8 µM"),
    ("Cc1cc2c(=O)[nH]nc(N)c2c(N)n1", "PC-3 prostate", "> 100 µM"),
    ("COc1ccc(-n2c(=O)n(C)c(=O)n2-c2c(C)c(C)c(C)c(C)c2C)cc1", "PC-3 prostate", "> 100 µM"),
    ("CC1(C)C(=O)C2(C#N)CCC1C2 (stereo unspecified)", "PC-3 prostate", "> 100 µM"),
    ("CN(CC#N)C(=O)Cc1ccc([N+](=O)[O-])cc1", "PC-3 prostate", "> 10 µM"),
]

###

system: OVCAR-8 ovarian; assay: NCI tumour cell line growth inhibition, 48 h

# compound, assay.target, cmp, TGI, µM
records = [
    ("Cc1cc2c(=O)[nH]nc(N)c2c(N)n1", "OVCAR-8 ovarian", ">", 100),
    ("CC(C)(C)C[P+](C)(C)c1ccccc1", "OVCAR-8 ovarian", ">", 100),
    ("CC(C)(C)c1cc(C(C)(C)C)c2sc(=S)oc2c1O", "OVCAR-8 ovarian", "=", 20.9),
    ("COCC12CC(CC1=O)C1C2ON2c3ccccc3C(=O)C12c1ccccc1 (stereo not given)", "OVCAR-8 ovarian", ">", 100),
    ("O=C(Nc1ccc(S(=O)(=O)NC2CCCCCC2)cc1)C(c1ccccc1)S(=O)(=O)c1ccc(F)cc1 (stereo not given)", "OVCAR-8 ovarian", "=", 4.68),
]

###

Overview of reported TGI across a group of compounds:
tested on: HOP-62 NSCLC; assay: NCI tumour cell line growth inhibition, 48 h

# compound, assay.target, unit.abbrev, cmp, TGI
rows = [
    ("CCOC(=O)CNC(=O)C(CSC(=O)N(C)O)NC(=O)CCC(N)C(=O)O (stereo not given)", "HOP-62 NSCLC", "µM", ">", 2000),
    ("CCN(CC)c1ccc2nc3c4ccccc4c(=NC(=O)c4ccccc4-c4c5ccc(N(CC)CC)cc5[o+]c5cc(N(CC)CC)ccc45)cc-3oc2c1", "HOP-62 NSCLC", "µM", "=", 4.53),
    ("O=C(CCO)OCCCCCC/C=C\\CCCCCC/C=C\\CCCCCCCCOC(=O)CCO", "HOP-62 NSCLC", "µM", "=", 36.1),
    ("COc1ccc(-c2cncn2-c2cc(OC)c(OC)c(OC)c2)cc1F", "HOP-62 NSCLC", "µM", ">", 100),
    ("CCCOCN1COCN=C1NC#N", "HOP-62 NSCLC", "µM", ">", 100),
    ("COC(=O)Nc1nc2ccc(Sc3ccccc3)cc2[nH]1", "HOP-62 NSCLC", "µM", "=", 4.23),
    ("O=C(Nc1cc(Cl)c(Cl)cc1Cl)C(=O)C(C(=O)c1ccc2ccccc2c1)C1OC(=O)c2ccccc21 (stereo not given)", "HOP-62 NSCLC", "µM", "=", 43.5),
    ("CCNCCNc1cc(-c2cccc(C(F)(F)F)c2)c(C#N)c2nc3ccccc3n12", "HOP-62 NSCLC", "µM", "=", 3.8),
    ("Cc1cc(-c2nc3cc(F)ccc3s2)ccc1NC(=O)C(C)N (stereo not given)", "HOP-62 NSCLC", "µM", "=", 8.32),
    ("CCS/C(Nc1ccccc1)=C(\\C#N)C(=O)N/N=C/c1ccc(Cl)cc1Cl", "HOP-62 NSCLC", "µM", ">", 100),
]

###

system: OVCAR-3 ovarian; assay: NCI tumour cell line growth inhibition, 48 h; in the data active = GI50 below about 0.43 µM; inactive = the rest
Classes used: active, inactive

# compound, assay.target, discrete.label
measured = [
    ("CN1CCN(c2ccc3nc4c(nc3c2C(F)(F)F)C(=O)c2ncccc2C4=O)CC1", "OVCAR-3 ovarian", "active"),
    ("O=C(CC1(O)C(=O)Nc2c(Cl)ccc(Cl)c21)c1ccc(C2CC2)cc1 (centres undefined)", "OVCAR-3 ovarian", "inactive"),
    ("CC(=O)OCC(=O)C1(O)C(C)CC2C3C=C(C)C4=Cc5c(cnn5-c5ccccc5)CC4(C)C3C(O)CC21C (centres undefined)", "OVCAR-3 ovarian", "inactive"),
    ("CNCCOc1nc2c3cnccc3cc(-c3cc(OC)c(OC)c(OC)c3)c2c2ccncc12", "OVCAR-3 ovarian", "active"),
    ("C=C(C)[C@@H]1CC[C@]2(C)[C@H](C=CC3=C4C[C@@](C)(CO)CC[C@]4(C)CC[C@]32C)[C@@]1(C)CCCN", "OVCAR-3 ovarian", "inactive"),
    ("Cc1sc(/N=C2/NC(=O)CS2)nc1-c1nc(/N=C2/NC(=O)CS2)sc1C", "OVCAR-3 ovarian", "inactive"),
    ("O=C(/C=C/c1cccc(B(O)O)c1)c1cccc(B(O)O)c1", "OVCAR-3 ovarian", "inactive"),
    ("CN(C)CCOc1nc2ccccc2c2c1-c1ccc(Cl)cc1C2=O", "OVCAR-3 ovarian", "inactive"),
    ("CCNCCNc1cc(-c2cccc(C(F)(F)F)c2)c(C#N)c2nc3ccccc3n12", "OVCAR-3 ovarian", "inactive"),
]

###

tested on: SN12C renal; assay: NCI tumour cell line growth inhibition, 48 h
Overview of reported TGI across a group of compounds:

# mol.smiles, TGI
measured = [
    ("Cc1ccc(-c2cc(/C=N/O)on2)cc1", "> 100 µM"),
    ("O=c1cc(-c2nc3ccccc3[nH]2)[nH]c2nc(-c3nc4ccccc4[nH]3)cc(-c3ccc(Cl)cc3)c12", "46.9 µM"),
    ("Cn1c2c(cc(-c3ccccc3)c1=O)COc1ccccc1-2", "> 100 µM"),
    ("CCc1ccccc1-n1c(N)c(C#N)c(-c2ccc(OC)c(OC)c2)c(C#N)c1=O", "45.1 µM"),
    ("O=c1cc(-c2ccccc2Cl)[nH]c2cc3c(cc12)OCO3", "29.1 µM"),
    ("Nn1c(N=Nc2c(O)[nH]c3ccccc23)n[nH]c1=S", "> 100 µM"),
    ("COc1cc(/C=C/C(=O)c2ccc(Nc3nc(Nc4ccccc4)nc(Nc4ccc(Cl)cc4)n3)cc2)cc(OC)c1OC", "> 32.5 µM"),
    ("Cc1nc(N)sc1C(=O)/C=C/c1ccc([N+](=O)[O-])cc1", "> 100 µM"),
    ("C[C@@H]1CN2[C@H]3[C@@H]1CC[C@]31CCC(=O)O[C@]1(C)[C@@H]1CC[C@H]3CCC=C3[C@@H]12", "> 70 µM"),
    ("COC(=O)c1cc(C)n(NC(=O)OC(C)(C)C)c1C", "> 100 µM"),
]

###

system: TK-10 renal; assay: NCI tumour cell line growth inhibition, 48 h
Note to self: values exactly at 30 µM are MET. So TGI at or above 30 µM is MET, below is NOT MET.

# molecule, discrete.label
records = [
    ("COc1ccc(-n2cc(-c3ccc(OC)c(OC)c3)nc2SCc2ccccc2)cc1Cl", "MET"),
    ("N#CC12Cc3ccc4c(c3-c3cccc(c31)CCN2C(=O)c1ccccc1)OCO4 (configuration not stated)", "MET"),
    ("CCOc1ccc(NC(=O)CCC(=O)NN)cc1", "MET"),
    ("COC(=O)c1ccc(NCc2cc(O)ccc2O)cc1O", "MET"),
    ("O=c1cc(-c2nc3ccccc3[nH]2)[nH]c2nc(-c3nc4ccccc4[nH]3)cc(-c3ccc(Cl)cc3)c12", "MET"),
    ("CCOC(=O)CNC(=O)C(CSC(=O)N(C)O)NC(=O)CCC(N)C(=O)O (configuration not stated)", "MET"),
    ("Nc1cnc2c(c1)c(=O)nc1n2CCS1", "MET"),
    ("COc1cc(C2C(Cl)C(=O)N2NC(=O)Cc2ccccc2)ccc1O (configuration not stated)", "MET"),
    ("CC(C)(C)c1cc(C(C)(C)C)c2sc(=S)oc2c1O", "NOT MET"),
    ("O=C1c2cccc3cc([N+](=O)[O-])cc(c23)C(=O)N1O", "MET"),
    ("N#Cc1ccccc1Nc1ccccc1S", "MET"),
    ("O=C1c2ccccc2C(=O)c2c(NC(=O)c3ccc4c5c(ncnc35)-c3ccccc3C4=O)cccc21", "MET"),
    ("NCCc1ccc2c(c1)C(=O)c1c(O)ccc(O)c1C2=O", "MET"),
    ("CCCCOc1ccc(S(=O)(=O)/N=C(\\NN)Nc2ccc(Cl)cc2)cc1", "MET"),
    ("NC(N)=N/N=C/c1ccc(O)c(C(=O)O)c1", "MET"),
    ("O=C1c2ccccc2C(=O)c2sc(Nc3ccc(Cl)c(Cl)c3)nc21", "NOT MET"),
    ("COC(=O)c1cc(C)n(NC(=O)OC(C)(C)C)c1C", "MET"),
    ("O=C1N[C@@H]2c3c(Br)sc(Br)c3C(=O)[C@@H]2N1", "NOT MET"),
    ("C[n+]1c(-c2ccc(/C=N\\NC(=O)c3ccc(C(=O)N/N=C/c4ccc(-c5cn6ccsc6[n+]5C)cc4)cc3)cc2)cn2ccsc21", "MET"),
    ("CCc1ccccc1-n1c(N)c(C#N)c(-c2ccc(OC)c(OC)c2)c(C#N)c1=O", "MET"),
    ("Cc1cc2nc3c4ccccc4n(CCN(C)C)c3nc2cc1C", "NOT MET"),
]
